# test-details: Single dose oral pharmacokinetic studies in rabbits
# Assay type: in vivo, male New Zealand White rabbits
# details: male, New Zealand White, rabbit, plasma, po, 90 mg/kg, 8.00 h; non-coated capsule, 90 mg/kg b.w. oral
# Method: The studies detailed below (and referred to as Examples 2 to 8) were conducted to provide comparative single dose oral pharmacokinetics data for Compound 1, as well as sodium and potassium salts of that compound, using non-coated and enteric-coated capsules in male New Zealand White rabbits. […] Concentrations of the analyte of Compound 1 in New Zealand white rabbits was determined using an API 3200 Q-trap LC-MS/MS system. […]
measurement-type: concentration at 8 h
Remember to put the unit after the number in your answer.

Exercise: Please give the measured concentration at 8 h for this compound: `O=C(Nc1nc(=O)n(Cc2ccc(Cl)cc2)s1)c1ccc(Cl)cc1`
Solution: 39200 ng/mL

====

# test-details: Single dose oral pharmacokinetic studies in rabbits
# Format: in vivo, male New Zealand White rabbits
# details: male, New Zealand White, rabbit, plasma, po, 90 mg/kg, 0.16 h; standard suspension, 90 mg/kg b.w. oral
measurement-type: concentration at 0.16 h (ng/mL)
Answer format: numeric, ng/mL implied, no suffix.

Exercise: Please give the measured concentration at 0.16 h for this compound: `O=C(Nc1nc(=O)n(Cc2ccc(Cl)cc2)s1)c1ccc(Cl)cc1`
Solution: 1210

====

# test-details: Single dose oral pharmacokinetic studies in rabbits
# Type: in vivo, male New Zealand White rabbits
# details: male, New Zealand White, rabbit, plasma, po, 90 mg/kg, 24.00 h; non-coated capsule, 90 mg/kg b.w. oral
measurement-type: concentration at 24 h (µg/mL)
Answer format: numeric, µg/mL implied, no suffix.

Exercise: Please give the measured concentration at 24 h for this compound: `O=C(Nc1nc(=O)n(Cc2ccc(Cl)cc2)s1)c1ccc(Cl)cc1`
Solution: 63.6

====

# test-details: Single dose oral pharmacokinetic studies in rabbits
# Type: in vivo, male New Zealand White rabbits
# details: male, New Zealand White, rabbit, plasma, po, 90 mg/kg, 48.00 h; standard suspension, 90 mg/kg b.w. oral
measurement-type: concentration at 48 h (ng/mL)
Answer format: numeric, ng/mL implied, no suffix.

Exercise: Please give the measured concentration at 48 h for this molecule: O=C(Nc1nc(=O)n(Cc2ccc(Cl)cc2)s1)c1ccc(Cl)cc1 [Compound 1]
Solution: 8830

====

# test-details: Single dose oral pharmacokinetic studies in rabbits
# Assay type: in vivo, male New Zealand White rabbits
# details: male, New Zealand White, rabbit, plasma, po, 25 mg/kg, enteric coated capsule with MgO, 25 mg/kg b.w. oral single dose, rabbit plasma (Example 9)
measurement-type: MRT last (h)
Answer format: numeric, h implied, no suffix.

Exercise: Please give the measured MRT last for this compound: O=C(Nc1nc(=O)n(Cc2ccc(Cl)cc2)s1)c1ccc(Cl)cc1.[Na] [Compound 2]
Solution: 27.7

====

# test-details: Single dose oral pharmacokinetic studies in rabbits
# Assay type: in vivo, male New Zealand White rabbits
# details: male, New Zealand White, rabbit, plasma, po, 90 mg/kg, standard suspension (2% w/v methylcellulose), 90 mg/kg b.w. oral single dose, rabbit plasma (Example 8)
measurement-type: half-life (h)
Answer format: numeric, h implied, no suffix.

Exercise: Please give the measured half-life for this molecule: O=C(Nc1nc(=O)n(Cc2ccc(Cl)cc2)s1)c1ccc(Cl)cc1 [Compound 1]
Solution: 36

Where do these numbers come from? They come from patent US12162850B2.
